- System: Pancreatin
- assay_procedure: Protease stability in simulated intestinal fluid (Pancreatin-SIF, FaSSIF)
- Assay type: in vitro ADME
- test_conditions: 60 min, 1 μM peptide, 37° C., read-out: FaSSIF 60 (min), remaining percent of peptide
Starred links: 1 amine or outer side, 2 acyl side, 3 side chain; linkers in the order of their positions; H or OH if unused. Positions of bridges follow the written chain, without caps; N, C: chain ends. Non-standard residues stand in square brackets, D forms with d. Residues, ends and D or L forms follow the SMILES beside them. *: point of attachment. Trp(7-Me) = Cc1cccc2c(C[C@H](N)C(=O)O)c[nH]c12; X1 = O=C(CCCCN[*:3])N[C@@H](CS[*:2])C(=O)[*:1]; 2Nal = N[C@@H](Cc1ccc2ccccc2c1)C(=O)O; 3Pal = N[C@@H](Cc1cccnc1)C(=O)O; Thp = NC1(C(=O)O)CCOCC1; Me2NCH2CH2 = CN(C)CC*; Sar = CNCC(=O)O
test_readout: remaining at 1 h, 1 µM (%)
One number for each entry, in %.

// field: remaining at 1 h, 1 µM; key: CC(=O)NCCCC[C@@H]1NC(=O)[C@H](Cc2c[nH]c3c(C)cccc23)NC(=O)[C@@H](NC(C)=O)CCCCNC(=O)[C@@H]2CSSC[C@H](NC1=O)C(=O)N[C@@H](Cc1ccc(OCCN(C)C)cc1)C(=O)N[C@@H](Cc1ccc3ccccc3c1)C(=O)NC1(CCOCC1)C(=O)N[C@H](C(=O)N[C@@H](CC(N)=O)C(=O)N[C@@H](Cc1cccnc1)C(=O)N(C)CC(N)=O)CCC(=O)NCCCCC(=O)N2 [compound 66] (Ac-K[Trp(7-Me)]K(Ac)CY(Me2NCH2CH2)[2Nal][Thp]EN[3Pal][Sar]-NH2; linker 1-4-8 via X1) ; value = 94
